# Test system: OVCAR-4
# assayMethodText: NCI tumour cell line growth inhibition, 48 h
Calls of active or inactive are those of the source. Rule as the data show it: active = GI50 up to about 1.1 µM and inactive = higher.
Response enum: YES (active), NO (inactive)

>>> category("Clc1ccc(C(OCn2ccnc2)c2nc3ccccc3[nH]2)c(Cl)c1 (stereo not given)")
"NO"
>>> category("CCCNCCCC(NC(C)=O)C(=O)NCc1ccccc1 (stereo not given)")
"NO"
>>> category("CCN(CC)c1ccc2cc(C(=O)Nc3ccc(C)cc3)c(=N)oc2c1")
"NO"

(Q) Call for entry O=C(CC(=O)C1CCOC1=O)C(=O)Nc1ccc(Cl)cc1Cl (stereo not given) :
(A) NO

(Q) Call for entry COC(=O)c1cc(C)ccc1CC(Cc1ccc(C)cc1)C(=O)OC (stereo not given) :
(A) NO

(Q) Call for entry COC(=O)CC1C(COC(C)=O)OC(n2cc(C)c(=O)[nH]c2=O)C1OC(C)=O (stereo not given) :
(A) NO

(Q) Call for entry `O=[N+]([O-])c1ccc2nc(O)n[n+]([O-])c2c1` :
(A) NO

* * *

# Test system: HCT-15
Peptide text beside a SMILES is read from it. * marks the point of attachment. Cbz = O=C(OCc1ccccc1)*; OBn = c1ccc(CO*)cc1
reportedEndpoint: log10 of GI50 (log10 of the value in µM)
Response schema: value (number) is log10 of GI50 in units of µM.

Some compounds with known log10 of GI50 results, for comparison:
>>> datavalue("CCCCCCCCCCN(CCCCCCCCCC)C(=O)COc1c2cc(C(C)(C)C)cc1Cc1cc(C(C)(C)C)cc(c1OCC(=O)N(CCCCCCCCCC)CCCCCCCCCC)Cc1cc(C(C)(C)C)cc(c1OCC(=O)N(CCCCCCCCCC)CCCCCCCCCC)Cc1cc(C(C)(C)C)cc(c1OCC(=O)N(CCCCCCCCCC)CCCCCCCCCC)C2")
0.94
>>> datavalue("Oc1c(Cl)c(Cl)c(O)c(CCNc2ccc3ncccc3c2)c1Cl")
1.17
>>> datavalue("COC1C2c3ccccc3C(C#N)(Cc3ccc4c(c32)OCO4)N1C(=O)c1ccccc1 (configuration not stated)")
1.23
>>> datavalue("CC1=C(C(=O)OCCc2ccc([N+](=O)[O-])cc2)C(c2ccccc2C(F)(F)F)C(C(=O)OC(C)C)=C(C)N1 (configuration not stated)")
0.58

Could I get log10 of GI50 for every one of these entries?
1. CCOC(=O)/C=C(/C(=O)OCC)n1ccc(=O)n(Cc2cn(COCCOC(C)=O)nn2)c1=O
2. S=C(Nc1ccccc1)N1N=C2c3ccccc3CC[C@H]2[C@@H]1c1ccccc1

(A)
1: 1.31; 2: 0.31

Could I get log10 of GI50 for every one of these entries?
1. CCCCCCCCCCCC[C@@H](O)[C@H]1CC[C@H]([C@H]2CC[C@H]([C@H](O)CC[C@H](O)CCCCCCCC3=C[C@H](C)OC3=O)O2)O1
2. C[C@@H]1C[C@@H](O)[C@]2(O)O[C@@H]3C[C@@]4(C=O)[C@@H](CC[C@@H]5[C@@H]4CC[C@]4(C)[C@@H](C6=CC(=O)OC6)CC[C@]54O)C[C@H]3O[C@@H]2O1
3. Fc1ccc(/N=C/C=C/Nc2ccc(F)cc2)cc1
4. CN(C)Cc1cc(O)c(O)c(CN(C)C)c1
5. CCOC(=O)CSc1nnc(C(Sc2nc(-c3ccccc3)c(-c3ccccc3)[nH]2)C(C)C)n1-c1ccccc1 (configuration not stated)
6. COc1cc2c(cc1OC)C(Cc1c3ccccc3cc3ccccc13)N(C)CC2 (configuration not stated)

(A)
1: 0.31; 2: -1.79; 3: -0.51; 4: 1.38; 5: 1.26; 6: 1.48

Could I get log10 of GI50 for every one of these entries?
1. C(=N\Cc1ccccc1)/c1ccccc1-c1ccccc1/C=N/Cc1ccccc1
2. C=CCSS/C=C/C[S+]([O-])CC=C (configuration not stated)
3. COC(=O)CNC(=O)C(C)NC(=O)C(CC(=O)OCc1ccccc1)NC(=O)OCc1ccccc1 (stereo not drawn) (Cbz-Asp(OBn)-Ala-Gly-OMe; configuration not given here)

(A)
[0.74, 1.55, 1.73]

* * *

Give GI50 for every item shown.
# System: NCI-H23
# assayMethodText: NCI tumour cell line growth inhibition, 48 h
Activity calls are given as the source filed them. Cut-off read from the data, not from the text of the source: active = GI50 up to about 1.1 µM and inactive = higher. Numbered stars: 1 amine (or outer) side, 2 acyl side, 3 side chain; on linkers, the order of the positions; unused ones are H or OH. Square brackets hold non-standard residues; d marks the D form. Peptide text beside a SMILES is read from it. X55 = CC[C@H](C)[C@H](OC(=O)[C@@H](C)[C@@H](CC)N[*:1])C(=O)[*:2]; X31 = C[C@H](N[*:1])C(=O)C(C)(C)C(=O)[*:2]; NMeY = CN[C@@H](Cc1ccc(O)cc1)C(=O)O; NMeL = CN[C@@H](CC(C)C)C(=O)O; NMeV = CN[C@H](C(=O)O)C(C)C

Some molecules with known GI50 results, for comparison:
>>> datavalue("c1ccc2c(c1)Sc1ccccc1N2CC1CN2CCC1CC2 (stereo unspecified)")
"13 µM (inactive)"
>>> datavalue("Cc1cc2c(C(C)C)c(O)c(O)c(/C=N/c3cc(C(F)(F)F)ccc3Cl)c2c(O)c1-c1c(C)cc2c(C(C)C)c(O)c(O)c(/C=N/c3cc(C(F)(F)F)ccc3Cl)c2c1O")
"57.8 µM (inactive)"
>>> datavalue("O=C1C(O)=C(CCCCCCCCC2CCCCC2)C(=O)c2ccccc21")
"3.33 µM (inactive)"
>>> datavalue("Oc1c(Cl)c(Cl)c(O)c(CCNc2ccc3ncccc3c2)c1Cl")
"10.2 µM (inactive)"
>>> datavalue("N#COc1ccc(Oc2ccccc2)cc1")
"39.4 µM (inactive)"
>>> datavalue("N#CCC(=O)c1cc(OCc2cc(OCc3ccc(Br)cc3)cc(OCc3ccc(Br)cc3)c2)cc(OCc2cc(OCc3ccc(Br)cc3)cc(OCc3ccc(Br)cc3)c2)c1")
"> 100 µM (inactive)"
>>> datavalue("Cc1csc2nc(-c3ccc(Cl)c([N+](=O)[O-])c3)c(/C=N/NC(=N)N)n12")
"1.7 µM (inactive)"
>>> datavalue("C[N+](C)(C)CCC(=O)N1C/C(=C\\c2ccccc2)C(=O)/C(=C/c2ccccc2)C1")
"10.4 µM (inactive)"

Could I get GI50 for every one of these entries?
1. CCOc1ccccc1NC(=O)CCC(=O)OC
2. CC(=O)Nc1ccc(-c2nc3ccccc3s2)cc1C
3. CC[C@H](C)[C@@H]1OC(=O)[C@@H](C)[C@@H](CC)NC(=O)[C@H](C)NC(=O)C(C)(C)C(=O)[C@H](C)NC(=O)[C@H](Cc2ccc(OC)cc2)N(C)C(=O)[C@H](C(C)C)N(C)C(=O)CNC(=O)[C@H](CC(C)C)N(C)C(=O)CNC1=O [DOLASTATIN 11] (cyclo(A[X55]G[NMeL]G[NMeV][NMeY](Me)[X31]))
4. COC(=O)CC[C@@H](C)[C@H]1CC[C@H]2[C@@H]3CC[C@@H]4C[C@H](O)CC[C@]4(C)[C@H]3CC[C@]12C
5. C=CCOCn1ccc(=O)[nH]c1=O
6. O=C(c1nc2ccccc2nc1O)C(O)c1ccccc1 (stereo unspecified)
7. CC1CCC2CC(=O)OC([C@@H]3C(=O)O[C@@H](C4=CCCC4)C4C(C)CCC43)C12 (stereo partly specified)
8. Oc1cccc(Nc2cc(O)nc(O)n2)c1

(A)
1: > 100 µM (inactive); 2: 75.5 µM (inactive); 3: 0.071 µM (active); 4: 16.5 µM (inactive); 5: > 100 µM (inactive); 6: > 100 µM (inactive); 7: > 100 µM (inactive); 8: > 100 µM (inactive)

Could I get GI50 for every one of these entries?
1. Cc1ccccc1C(=N)c1ccccc1Cc1cccc2ccccc12
2. CC1=NN(c2ccccc2Cl)C2(C1)C(Cl)C(=O)N2c1nc2ccccc2s1 (stereo unspecified)
3. CC1=C([S+]([O-])c2ccc(C)cc2)CCC2(CCCCO2)O1 (stereo unspecified)
4. C[N+](C)(C)C(C1=CCCC1=O)c1ccccc1 (stereo unspecified)
5. COc1ccc(/C=C/c2cnnc3ccccc23)cc1OC
6. CCOc1cc(C(=O)O)c2c(ccc3ccc(OC)c(OC)c32)c1OC
7. O=C(Nc1c(O)[nH]c(=S)[nH]c1=O)c1ccccn1
8. O=[N+]([O-])/C(Cl)=C(/C(Cl)=C(Cl)Cl)N1CCOCC1

(A)
24.5 µM (inactive)
48.4 µM (inactive)
> 100 µM (inactive)
45.2 µM (inactive)
> 10 µM (inactive)
> 100 µM (inactive)
> 100 µM (inactive)
2.24 µM (inactive)

Could I get GI50 for every one of these entries?
1. O=c1cc(-c2ccc(O)c(O)c2)oc2cc(O[C@H]3O[C@H](CO)[C@@H](O)[C@H](O)[C@H]3O)cc(O)c12
2. COC(=O)CN1CCN(c2cccc3c2CCCC3)CC1
3. CCOC(=O)Cc1csc(N/C=C2/C(=O)Oc3ccccc3C2=O)n1

(A)
["> 100 µM (inactive)", "13.9 µM (inactive)", "22.8 µM (inactive)"]

Could I get GI50 for every one of these entries?
1. CCOC(=O)/C=C(/C(=O)OCC)n1ccc(=O)n(Cc2cn(COCCOC(C)=O)nn2)c1=O
2. COc1ccc(/C=C2\N=C(SC)N(CN3CCOCC3)C2=O)cc1
3. CC1=C(C(=O)NC(C)(C)C)CC(C(=O)NC(C)(C)C)C(C)N1 (stereo unspecified)
4. CCOC(=O)C12C3CCC1C2C(=O)C3 (stereo unspecified)
5. C=C[C@H]1CN2CCc3c([nH]c4c([C@H]5CCCN5C)c(O)ccc34)[C@@H]2C[C@@H]1C[C@H]1c2[nH]c3ccccc3c2CCN1C
6. CCOC(=O)c1c(SC(=O)c2ccc(Cl)cc2)n(-c2ccccc2)c(=S)n(-c2ccccc2)c1=O

(A)
["20.7 µM (inactive)", "> 100 µM (inactive)", "> 100 µM (inactive)", "> 100 µM (inactive)", "1.85 µM (inactive)", "> 100 µM (inactive)"]
